# Test system: TE-1 esophageal cancer cells
# Experimental details: CTG cell proliferation IC50, TE-1
# Assay type: cell-based
# Condition context: TE-1 cells, 72 hours, listed as compound I, read-out: Absolute IC50
Quantity kind: IC50

What IC50 value was documented for this compound, COCCOc1cnc2ccc(-c3cnc(OC)c(NS(=O)(=O)c4sc(C)nc4C)c3)cn2c1=O ?
< 1000 nM

====

# Test system: RPMI2650 head and neck cancer cells
# Experimental details: CTG cell proliferation IC50, RPMI 2650
# Format: cell-based
# Condition context: 72 hours, listed as compound I, read-out: Absolute IC50
pIC50: −log10 of the molar value.
Quantity kind: pIC50

Can you look up pIC50 on RPMI2650 head and neck cancer cells for COCCOc1cnc2ccc(-c3cnc(OC)c(NS(=O)(=O)c4sc(C)nc4C)c3)cn2c1=O ?
> 6.00

Cited source for all entries: patent US12661357B2
